Values were extracted from the supplement of paper PMC11624193.

target_entity: PARP1 L713F-nLuc biosensor (HCT116) (UniProt P09874)
Sequence (P09874 whole entry L713F, looked up): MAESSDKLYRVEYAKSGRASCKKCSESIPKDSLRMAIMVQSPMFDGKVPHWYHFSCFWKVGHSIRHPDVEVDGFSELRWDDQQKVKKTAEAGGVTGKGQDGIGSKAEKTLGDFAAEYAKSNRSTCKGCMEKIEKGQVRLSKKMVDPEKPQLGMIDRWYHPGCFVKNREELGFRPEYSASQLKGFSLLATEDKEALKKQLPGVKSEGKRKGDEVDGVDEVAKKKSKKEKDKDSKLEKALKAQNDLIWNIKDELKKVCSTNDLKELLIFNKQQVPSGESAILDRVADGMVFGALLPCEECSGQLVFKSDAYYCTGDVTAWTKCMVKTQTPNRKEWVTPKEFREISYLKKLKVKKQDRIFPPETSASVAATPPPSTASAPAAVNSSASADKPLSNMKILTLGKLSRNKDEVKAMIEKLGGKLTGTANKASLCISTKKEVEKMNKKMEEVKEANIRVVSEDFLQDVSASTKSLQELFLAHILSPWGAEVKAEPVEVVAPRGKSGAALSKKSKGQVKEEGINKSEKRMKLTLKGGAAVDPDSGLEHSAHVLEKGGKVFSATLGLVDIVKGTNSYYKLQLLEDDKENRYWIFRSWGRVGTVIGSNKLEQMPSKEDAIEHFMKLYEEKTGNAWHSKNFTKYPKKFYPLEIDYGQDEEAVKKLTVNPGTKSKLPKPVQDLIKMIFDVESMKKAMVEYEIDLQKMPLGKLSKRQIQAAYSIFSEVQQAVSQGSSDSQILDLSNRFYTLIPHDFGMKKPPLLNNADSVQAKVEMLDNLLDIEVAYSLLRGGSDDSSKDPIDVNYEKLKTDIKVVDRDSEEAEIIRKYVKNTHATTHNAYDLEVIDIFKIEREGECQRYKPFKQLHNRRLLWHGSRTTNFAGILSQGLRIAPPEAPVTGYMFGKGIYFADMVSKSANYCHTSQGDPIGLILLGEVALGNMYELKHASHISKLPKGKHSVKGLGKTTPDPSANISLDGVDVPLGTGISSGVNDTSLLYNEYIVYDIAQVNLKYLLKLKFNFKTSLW
assay_method_text: PARP1 L713F-nLuc/akaLuc ratio relative to DMSO control (biosensor stabilization) (fold change); higher = more PARP1 biosensor stabilization (target engagement / stabilizer), active = hit call of the paper
details: stock concentration (mM; final µM = stock mM x 1): 10; 24 h
Counter-ions that a name gives are not always drawn.
Measured PARP1 L713F-nLuc/akaLuc ratio, listed per entry for reference.
measurement_kind: PARP1 L713F-nLuc/akaLuc ratio

> print(dat)
                                   molecule                             target.entity               measurement.kind  reported.value
1  O=C(O)C(Cc1c[nH]c2ccccc12)N1C(=O)c2ccccc2C1=O (centres undefined)  PARP1 L713F-nLuc biosensor (HCT116) (UniProt P09874)  PARP1 L713F-nLuc/akaLuc ratio            1.39
2  NCCNS(=O)(=O)c1cccc2c(Cl)cccc12 [A-3 (hydrochloride)]  PARP1 L713F-nLuc biosensor (HCT116) (UniProt P09874)  PARP1 L713F-nLuc/akaLuc ratio           0.846
3  O=C(Nc1cccnc1)N1CCC(Cc2cccc(Oc3ccc(C(F)(F)F)cn3)c2)CC1  PARP1 L713F-nLuc biosensor (HCT116) (UniProt P09874)  PARP1 L713F-nLuc/akaLuc ratio           0.451
4  O=C(O)C1=CC(=C(c2ccc(O)c(C(=O)O)c2)c2ccc(O)c(C(=O)O)c2)C=CC1=O [Aurintricarboxylic acid]  PARP1 L713F-nLuc biosensor (HCT116) (UniProt P09874)  PARP1 L713F-nLuc/akaLuc ratio            0.68
5  COC(=O)c1cccc(NC(=O)NC2CCN(c3ccnc(Nc4ccc(F)cc4)n3)C2)c1 (centres undefined)  PARP1 L713F-nLuc biosensor (HCT116) (UniProt P09874)  PARP1 L713F-nLuc/akaLuc ratio            1.07
6  Oc1cc(O)c2c(c1)OC1(c3ccc(O)c(O)c3)Oc3cc(O)c4c(c3C2C1O)OC(c1ccc(O)c(O)c1)C(O)C4 (centres undefined) [Procyanidin A1]  PARP1 L713F-nLuc biosensor (HCT116) (UniProt P09874)  PARP1 L713F-nLuc/akaLuc ratio            1.43
7  O=c1ccoc2cc(O)cc(O)c12 [5,7-Dihydroxychromone]  PARP1 L713F-nLuc biosensor (HCT116) (UniProt P09874)  PARP1 L713F-nLuc/akaLuc ratio            1.02
8  CNc1nc(Nc2cn(C(C)(C)C#N)nc2C)ncc1C(F)(F)F  PARP1 L713F-nLuc biosensor (HCT116) (UniProt P09874)  PARP1 L713F-nLuc/akaLuc ratio           0.811
9  O=C(NOC[C@H](O)CO)c1ccc(F)c(F)c1Nc1ccc(I)cc1F  PARP1 L713F-nLuc biosensor (HCT116) (UniProt P09874)  PARP1 L713F-nLuc/akaLuc ratio             0.6

* * *

target_entity: PARP1 L713F-nLuc biosensor (HCT116)
assay_method_text: PARP1 L713F-nLuc/akaLuc ratio relative to DMSO control (biosensor stabilization) (fold change); higher = more PARP1 biosensor stabilization (target engagement / stabilizer), active = hit call of the paper
details: stock concentration (mM; final µM = stock mM x 1): 10; 24 h
Where a name gives a salt, the structure may show the parent alone.
Measured PARP1 L713F-nLuc/akaLuc ratio, listed per entry for reference.

compound	PARP1 L713F-nLuc/akaLuc ratio
NC(=O)c1cccnc1 [Nicotinamide]	0.942
O=c1cc(O)cc(/C=C/c2ccc(O)c(O)c2)o1 [Hispidin]	1.19
CC(C)(C)c1nc(-c2cccc(NS(=O)(=O)c3c(F)cccc3F)c2F)c(-c2ccnc(N)n2)s1	0.885
O=[N+]([O-])c1cc(Nc2ccc3nonc3c2[N+](=O)[O-])ccc1Cl	1.28
Nc1ncn([C@@H]2O[C@H](CO)[C@@H](O)[C@H]2O)c(=O)n1 [5-Azacytidine]	2.35
CNC(=O)c1cc(COc2nnc(Nc3ccc(Cl)cc3)c3ccoc23)ccn1 [Telatinib]	1.17
CCOC(=O)CCNc1cc(N2CCc3ccccc3CC2)nc(-c2ccccn2)n1	0.586
O=C(O)c1ccc(-c2c[nH]c3ncc(-c4ccccc4)cc23)cc1C1CCCC1	0.793
CN(C)c1nc2c(Br)c(Br)c(Br)c(Br)c2n1CC(=O)O	1.02
NC(=O)c1cccc2cn(-c3ccc([C@@H]4CCCNC4)cc3)nc12 [Niraparib (MK-4827)]	6.42
O=c1ccc2ccc(O)c(O)c2o1 [Daphnetin]	1.38
COc1ccc(C(=O)C2CCN(CC(=O)N(Cc3nc4c(c(=O)[nH]3)COCC4)CC3CC3)CC2)cc1	1.01
CN(C)CCCCC(=O)Nc1ccc(NC(=S)NC(=O)c2ccc(C(C)(C)C)cc2)cc1 [Tenovin-6 (Hydrochloride)]	0.665
O=C(O)CNC(=O)c1c(O)c2ccccc2n(OCC2CC2)c1=O [Desidustat]	0.943
COc1cc2c(NC3CCN(C4CCCCC4)CC3)nc(N3CCCN(C(C)C)CC3)nc2cc1OCCCN1CCCCC1	0.886
CCCC(CCC)C(=O)O [Valproic acid (sodium salt)]	0.704
CCOc1ccn(-c2ccc(F)cc2)c(=O)c1C(=O)Nc1ccc(Oc2ccnc(N)c2Cl)c(F)c1	1
OC(COc1ccc(C(F)(F)F)cc1)CN(Cc1ccccc1)Cc1ccccc1 (centres undefined)	1.03
CN1CCN(CCOc2cc(OC3CCOCC3)c3c(Nc4c(Cl)ccc5c4OCO5)ncnc3c2)CC1 [Saracatinib (AZD0530)]	0.92
O=c1c2c([nH]n1-c1nc3ccccc3s1)CCCC2	0.788
O=C(c1ccc(/C=C/c2n[nH]c3ccccc23)cc1)N1CCNCC1	1.3
Cc1cnc(NC(=O)Nc2cc(Br)c(C)cc2OC[C@@H]2CNCCO2)cn1	0.787
O=C1c2ccccc2C(=O)c2c(NCCc3ccc(O)cc3)ccc(NCCc3ccc(O)cc3)c21	0.91
CC(=O)Nc1ccc(NC(=S)NC(=O)c2ccc(C(C)(C)C)cc2)cc1 [Tenovin-1]	0.509
COc1c(CN)cc(CN)cc1OCCCN1Cc2ccccc2C1 [MS31 (trihydrochloride)]	0.851
CNc1nc(NC2CCN(Cc3ccc4c(cc(C#N)n4CC45CC(NC=O)(C4)C5)c3C)CC2)c2cc(CC(F)(F)F)sc2n1	1.38
COc1cc2c(cc1OCCCN1CCCC1)N=C(N)C21CCC1	0.685
N#Cc1ccc(-c2cnc3[nH]cc(NC(=O)c4cccnc4)c3c2)cc1	0.668
Cc1c(C(=O)Nc2ccc(N3C[C@@H](C)O[C@@H](C)C3)nc2)cccc1-c1ccc(OC(F)(F)F)cc1 [Sonidegib (Erismodegib, NVP-LDE225)]	0.652
O=[N+]([O-])c1c(Nc2cc(F)cc(Cl)c2)ccc2nonc12	1.45
CCN1CCN(Cc2ccc(Nc3ncc(F)c(-c4cc(F)c5nc(C)n(C(C)C)c5c4)n3)nc2)CC1 [Abemaciclib]	0.621
Cc1nc(NC(=O)N2CCC[C@H]2C(N)=O)sc1-c1ccnc(C(C)(C)C(F)(F)F)c1 [Alpelisib (BYL719)]	0.761
CC[C@H](C)[C@H](NC(=O)[C@H](CCCCN)NC(=O)[C@H](CC(C)C)NC(=O)[C@@H]1CCCN1C(=O)[C@H](CCC(=O)O)NC(=O)[C@H](Cc1ccc(O)cc1)NC(=O)[C@@H](NC(=O)[C@H](CO)NC(=O)CNC(=O)[C@H](CO)NC(=O)[C@H](CCCN=C(N)N)NC(=O)[C@H](CCCCN)NC(=O)[C@@H](NC(=O)[C@@H](N)CCCN=C(N)N)[C@@H](C)O)C(C)C)C(=O)O [Malantide]	1.76
COC(=O)Nc1nc2cc(Sc3ccccc3)ccc2[nH]1 [Fenbendazole]	2.66
